// reported IC50 at 6 days per item
test: MTT cytotoxicity assay, SH-SY5Y cells; format: cell-based; conditions: human, 0.1−100 μM, 6 days treatment, read-out: IC50 (cytotoxicity, MTT viability)
Field: numeric (µM). Do not append units.

These recorded examples may help you get a feel for the data.
compound | IC50 at 6 days (µM)
O=[N+]([O-])c1cccc2nc(/C=C/c3cc4ccccc4nc3N3CCOCC3)ccc12 | 78
CCCCC/C=C\C/C=C\C/C=C\C/C=C\CCCC(=O)Nc1ccc(O)cc1 [AM404, reference compound] | 49

# ---- query compound ----
[in] // fetch IC50 at 6 days given entry CC(=O)/C(=C/c1ccccc1[N+](=O)[O-])Cc1c[nH]c2ccccc12
[out] 52

---

tested on: ATXN3/Q75-GFP SH-SY5Y cells; experiment: Neurite outgrowth analysis, ATXN3/Q75-GFP SH-SY5Y cells; format: cell-based, human; conditions: 10 μM compound, ATXN3/Q75-GFP-expressing cells; untreated 1.0
measure-name: neurite branch

These recorded examples may help you get a feel for the data.
molecule | value
CCCCC/C=C\C/C=C\C/C=C\C/C=C\CCCC(=O)Nc1ccc(O)cc1 [AM404, reference compound] | 1.4
O=C(c1ccccc1)c1cc2c(O)cccc2oc1=O [LM-031, 3-benzoyl-5-hydroxychromen-2-one] | 1.2
O=[N+]([O-])c1cccc2nc(/C=C/c3cc4ccccc4nc3N3CCOCC3)ccc12 [VB-037] | 1.2

# ---- query molecule ----
[in] // fetch neurite branch given entry CC(=O)/C(=C/c1ccccc1[N+](=O)[O-])Cc1c[nH]c2ccccc12 [NC009-1]
[out] 1.2
